- Assay System: CD3E (human, UniProt P07766 23-207)
- Sequence (P07766 23-207): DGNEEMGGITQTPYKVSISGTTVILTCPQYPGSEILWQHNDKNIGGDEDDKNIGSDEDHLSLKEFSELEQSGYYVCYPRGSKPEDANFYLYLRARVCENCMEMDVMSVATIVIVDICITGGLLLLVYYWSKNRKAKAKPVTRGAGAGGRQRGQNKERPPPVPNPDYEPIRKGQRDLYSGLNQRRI
- Method Summary: cell-based or functional assay
Task for the reader: assign each of the following binders its reported CD3E-positive proportion [%] (Avg, n = 2), CD3-stably expressing 293T cells.
Write the number in % without appending the unit.

Q: # query: CD3E-positive proportion [%] (Avg, n = 2), CD3-stably expressing 293T cells of entry modified TCR ba10 (TCR) TCR alpha: IPEDTFFPSPESSCDVKLVEKSFETDTNLNFQNLSVIGFRILLLKVAGFNLLMTLRLWSS TCR beta: EDLKNVFPPEVAVFEPSEAEISHTQKATLVCLATGFYPDHVELSWWVNGKEVHSGVSTDPQPLKEQPALNDSRYCLSSRLRVSATFWQNPRNHFRCQVQFYGLSENDEWTQDRAKPVTQIVSAEAWGRADCGFTSESYQQGVLSATILYEILLGKATLYAVLVSALVLMAMVKRKDSRG
Ans: 86.5

Q: # query: CD3E-positive proportion [%] (Avg, n = 2), CD3-stably expressing 293T cells of entry modified TCR ba14 (TCR) TCR alpha: IPEDTFFPSPESSCDVKLVEKSFETDTNLNFQNLSVIGFRILLLKVAGFNLLMTLRLWSS TCR beta: ATLVCLATGFYPDHVELSWWVNGKEVHSGVSTDPQPLKEQPALNDSRYCLSSRLRVSATFWQNPRNHFRCQVQFYGLSENDEWTQDRAKPVTQIVSAEAWGRADCGFTSESYQQGVLSATILYEILLGKATLYAVLVSALVLMAMVKRKDSRG
Ans: 46.4

Q: # query: CD3E-positive proportion [%] (Avg, n = 2), CD3-stably expressing 293T cells of entry modified TCR ba11 (TCR) TCR alpha: SVCLFTDFDSQTNVSQSKDSDVYITDKTVLDMRSMDFKSNSAVAWSNKSDFACANAFNNSIIPEDTFFPSPESSCDVKLVEKSFETDTNLNFQNLSVIGFRILLLKVAGFNLLMTLRLWSS TCR beta: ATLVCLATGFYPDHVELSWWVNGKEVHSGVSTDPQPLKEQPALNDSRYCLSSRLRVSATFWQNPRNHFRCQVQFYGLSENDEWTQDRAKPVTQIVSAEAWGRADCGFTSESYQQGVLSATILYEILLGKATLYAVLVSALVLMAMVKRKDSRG
Ans: 83.2

Q: # query: CD3E-positive proportion [%] (Avg, n = 2), CD3-stably expressing 293T cells of entry modified TCR ba6 (TCR) TCR alpha: NIQNPDPAVYQLRDSKSSDKSVCLFTDFDSQTNVSQSKDSDVYITDKTVLDMRSMDFKSNSAVAWSNKSDFACANAFNNSIIPEDTFFPSPESSCDVKLVEKSFETDTNLNFQNLSVIGFRILLLKVAGFNLLMTLRLWSS TCR beta: AKPVTQIVSAEAWGRADCGFTSESYQQGVLSATILYEILLGKATLYAVLVSALVLMAMVKRKDSRG
Ans: 47.6
